# System Tested: KRAS (G12D)-HiBit in AsPc-1-KRAS (G12D)-HiBit-KI cell (Homo sapiens, UniProt P01116, G12D)
# Construct: host or cells: AsPc-1-KRAS (G12D)-HiBit-KI cells (knock-in line)
# Sequence (P01116 1-188 isoform P01116-2 G12D): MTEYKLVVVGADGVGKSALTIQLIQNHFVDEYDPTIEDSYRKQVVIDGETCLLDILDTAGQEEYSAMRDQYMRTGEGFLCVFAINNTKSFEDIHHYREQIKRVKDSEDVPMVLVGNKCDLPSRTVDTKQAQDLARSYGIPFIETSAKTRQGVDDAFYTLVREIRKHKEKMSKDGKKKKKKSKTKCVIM
# Protocol Description: G12D HiBit assay
# Assay type: cell-based
# Measurement Context: 24 hours compound treatment, absolute DC50, read-out: Average PHA DC50
Assay Metric: DC50

**Query** Recorded DC50 of C#Cc1c(F)ccc2cccc(-c3ncc4c(N5CC6CCC(C5)N6)nc(OC[C@@]56CCCN5[C@H](COC(=O)N5CCC7(CC5)CC(CCc5cccc8c5n(C)c(=O)n8C5CCC(=O)NC5=O)C7)CC6)nc4c3F)c12 (stereo partly shown) [Compound 124] , please.
**Result** < 100 nM

**Query** Recorded DC50 of C#Cc1c(F)ccc2cccc(-c3ncc4c(N5CC6CCC(C5)N6)nc(OC[C@@]56CCCN5[C@H](COC(=O)N5CC(OCC7CCN(c8ccc9c(c8)n(C)c(=O)n9C8CCC(=O)NC8=O)CC7)C5)CC6)nc4c3F)c12 (stereo partly shown) [Compound 101] , please.
**Result** < 100 nM

**Query** Recorded DC50 of C#Cc1c(F)ccc2cccc(-c3ncc4c(N5CC6CCC(C5)N6)nc(OC[C@@]56CCCN5[C@H](COC(=O)N5CCC(N7CCC(Oc8cccc9c8n(C)c(=O)n9C8CCC(=O)NC8=O)CC7)CC5)CC6)nc4c3F)c12 (stereo partly shown) [Compound 66] , please.
**Result** < 100 nM

**Query** Recorded DC50 of C#Cc1c(F)ccc2cccc(-c3ncc4c(N5CC6CCC(C5)N6)nc(OC[C@@]56CCCN5[C@H](COC(=O)N5CCN(CCC7CCN(Cc8cccc9c8n(C)c(=O)n9C8CCC(=O)NC8=O)CC7)CC5)CC6)nc4c3F)c12 (stereo partly shown) [Compound 85] , please.
**Result** < 100 nM

Data provenance is patent US12404285B2.
